Tested on: human BCRP
PROTOCOL SUMMARY: in vitro
MEASUREMENT SETUP: dog

{"columns": ["INPUT SMILES", "MEASURED ON", "Papp A→B [×10⁻⁶ cm/s]"],
 "data": [
  ["CC(C)(CO)n1cc(C(=O)c2cncc(NC(=O)Cc3ccc(Cl)cc3)c2)c2cnc(N)nc21", "human BCRP", 6.4],
  ["CC(C)n1cc(C(=O)c2cncc(NC(=O)Cc3ccc(C#N)cc3)c2)c2c(N)ncnc21", "human BCRP", 12.1],
  ["CC(C)n1cc(C(=O)c2cncc(NC(=O)Cn3ccc(C4CC4)n3)c2)c2cnccc21", "human BCRP", 19.8],
  ["CC(C)n1cc(C(=O)c2cncc(NC(=O)Cn3ccc(C4CC4)n3)c2)c2cncnc21", "human BCRP", 18.4],
  ["CC(C)n1cc(C(=O)c2cncc(NC(=O)Cc3ccc(Cl)cc3)c2)c2cncnc21", "human BCRP", 9.9]
]}

====

System: human BCRP
PROTOCOL SUMMARY: in vitro
MEASUREMENT SETUP: dog

{"columns": ["INPUT SMILES", "Papp A→B"],
 "data": [
  ["CC(C)n1cc(C(=O)c2cncc(NC(=O)Cc3ccc(Cl)cc3)c2)c2cnc(N)nc21", "52 nm/s"],
  ["CC(C)n1cc(C(=O)c2cncc(NC(=O)Cn3ccc(C4CC4)n3)c2)c2cnc(N)nc21", "158 nm/s"],
  ["CC(C)n1cc(C(=O)c2cncc(NC(=O)Cn3ccc(C(F)(F)F)n3)c2)c2cnccc21", "113 nm/s"],
  ["CC(C)n1cc(C(=O)c2cncc(NC(=O)Cn3ccc(C4CC4)n3)c2)c2cncc(F)c21", "154 nm/s"],
  ["CC(C)n1cc(C(=O)c2ccnc(NC(=O)Cc3ccc(F)cc3F)c2)c2c(N)ncnc21", "241 nm/s"]
]}

====

PROTOCOL SUMMARY: in vitro
MEASUREMENT SETUP: human, liver microsomes
Outcome: Fulfilled for microsomal CLint at 1 h, 1 µM of at least 20 µL/min/mg; Not fulfilled for anything lower.

{"columns": ["INPUT SMILES", "CATEGORY"],
 "data": [
  ["CC(C)n1cc(C(=O)c2cncc(NC(=O)Cn3ccc(C4CC4)n3)c2)c2cnccc21", "Fulfilled"],
  ["CC(C)n1cc(C(=O)c2cncc(NC(=O)Cn3ccc(C4CC4)n3)c2)c2cncc(F)c21", "Fulfilled"],
  ["CC(C)n1cc(C(=O)c2cncc(NC(=O)Cn3ccc(C4CC4)n3)c2)c2cnc(N)nc21", "Not fulfilled"],
  ["CC(C)n1cc(C(=O)c2cncc(NC(=O)Cc3ccc(C#N)cc3)c2)c2c(N)ncnc21", "Fulfilled"],
  ["CC(C)n1cc(C(=O)c2cncc(NC(=O)Cc3ccc(Cl)cc3)c2)c2cnc(N)nc21", "Not fulfilled"],
  ["CC(C)(CO)n1cc(C(=O)c2cncc(NC(=O)Cc3ccc(Cl)cc3)c2)c2cnc(N)nc21", "Not fulfilled"],
  ["CC(C)n1cc(C(=O)c2cncc(NC(=O)Cc3ccc(Cl)cc3)c2)c2cncnc21", "Fulfilled"],
  ["CC(C)n1cc(C(=O)c2cncc(NC(=O)Cn3ccc(C4CC4)n3)c2)c2cncnc21", "Fulfilled"],
  ["CC(C)n1cc(C(=O)c2cncc(NC(=O)Cn3ccc(C(F)(F)F)n3)c2)c2cnccc21", "Not fulfilled"],
  ["CC(C)n1cc(C(=O)c2ccnc(NC(=O)Cc3ccc(F)cc3F)c2)c2c(N)ncnc21", "Fulfilled"]
]}

====

pKi: −log10 of the molar value.
Voltage-gated inwardly rectifying potassium channel KCNH2 (Homo sapiens, UniProt Q12809) measurements of pKi, listed per entry.
Sequence (Q12809 whole entry): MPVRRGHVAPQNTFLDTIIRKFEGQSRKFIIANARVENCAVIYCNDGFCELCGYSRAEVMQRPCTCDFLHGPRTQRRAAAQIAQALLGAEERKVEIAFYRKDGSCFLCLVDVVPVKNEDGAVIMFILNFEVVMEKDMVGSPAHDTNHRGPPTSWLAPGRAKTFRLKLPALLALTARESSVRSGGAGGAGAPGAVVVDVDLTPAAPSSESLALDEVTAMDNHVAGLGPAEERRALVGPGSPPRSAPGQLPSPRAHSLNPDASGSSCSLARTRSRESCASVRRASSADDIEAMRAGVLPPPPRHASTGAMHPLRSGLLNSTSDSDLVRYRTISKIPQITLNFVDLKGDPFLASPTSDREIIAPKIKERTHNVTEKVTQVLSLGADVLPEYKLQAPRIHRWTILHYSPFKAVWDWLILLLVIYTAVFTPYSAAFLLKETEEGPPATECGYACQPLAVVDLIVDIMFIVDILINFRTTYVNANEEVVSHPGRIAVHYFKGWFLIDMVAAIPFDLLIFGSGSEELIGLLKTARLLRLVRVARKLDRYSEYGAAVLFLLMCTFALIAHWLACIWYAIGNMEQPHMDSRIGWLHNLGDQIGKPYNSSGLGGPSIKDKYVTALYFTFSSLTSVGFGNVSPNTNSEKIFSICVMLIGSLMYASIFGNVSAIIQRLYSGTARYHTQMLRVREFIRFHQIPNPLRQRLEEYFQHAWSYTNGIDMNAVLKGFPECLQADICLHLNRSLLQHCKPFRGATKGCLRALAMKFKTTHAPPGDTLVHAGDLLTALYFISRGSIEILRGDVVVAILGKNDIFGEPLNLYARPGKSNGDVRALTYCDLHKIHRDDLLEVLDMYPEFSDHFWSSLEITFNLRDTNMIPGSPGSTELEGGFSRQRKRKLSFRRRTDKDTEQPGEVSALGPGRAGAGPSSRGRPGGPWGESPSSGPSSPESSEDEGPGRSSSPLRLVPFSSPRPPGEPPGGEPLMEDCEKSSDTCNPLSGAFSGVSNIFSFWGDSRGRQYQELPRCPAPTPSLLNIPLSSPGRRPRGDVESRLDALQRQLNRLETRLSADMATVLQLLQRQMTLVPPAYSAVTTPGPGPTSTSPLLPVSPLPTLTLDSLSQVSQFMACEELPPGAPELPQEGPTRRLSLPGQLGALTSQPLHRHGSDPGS

{"columns": ["INPUT SMILES", "MEASUREMENT QUALIFIER", "pKi"],
 "data": [
  ["CC(C)n1cc(C(=O)c2ccnc(NC(=O)Cc3ccc(F)cc3F)c2)c2c(N)ncnc21", "=", 5.08],
  ["CC(C)(CO)n1cc(C(=O)c2cncc(NC(=O)Cc3ccc(Cl)cc3)c2)c2cnc(N)nc21", "<", 5.37],
  ["CC(C)n1cc(C(=O)c2cncc(NC(=O)Cn3ccc(C(F)(F)F)n3)c2)c2cnccc21", "=", 5.85],
  ["CC(C)n1cc(C(=O)c2cncc(NC(=O)Cc3ccc(Cl)cc3)c2)c2cncnc21", "=", 5.28],
  ["CC(C)n1cc(C(=O)c2cncc(NC(=O)Cn3ccc(C4CC4)n3)c2)c2cnc(N)nc21", "=", 4.41],
  ["CC(C)n1cc(C(=O)c2cncc(NC(=O)Cn3ccc(C4CC4)n3)c2)c2cnccc21", "=", 5.85],
  ["CC(C)n1cc(C(=O)c2cncc(NC(=O)Cc3ccc(Cl)cc3)c2)c2cnc(N)nc21", "=", 4.77],
  ["CC(C)n1cc(C(=O)c2cncc(NC(=O)Cn3ccc(C4CC4)n3)c2)c2cncnc21", "=", 4.92],
  ["CC(C)n1cc(C(=O)c2cncc(NC(=O)Cc3ccc(C#N)cc3)c2)c2c(N)ncnc21", "=", 5.01],
  ["CC(C)n1cc(C(=O)c2cncc(NC(=O)Cn3ccc(C4CC4)n3)c2)c2cncc(F)c21", "=", 4.95]
]}

====

PROTOCOL SUMMARY: Half life in rat at 1 mg/kg, iv
Assay type: ADME, organism-based
MEASUREMENT SETUP: in vivo
PARAMETER MEASURED: half-life (h)

{"columns": ["INPUT SMILES", "PARAMETER MEASURED", "NUMERIC VALUE"],
 "data": [
  ["CC(C)n1cc(C(=O)c2cncc(NC(=O)Cn3ccc(C(F)(F)F)n3)c2)c2cnccc21", "half-life", 2.3]
]}

====

MEASUREMENT SETUP: human, hepatocytes, 4 h, 1 µM
// CLH(app) lookup, one value per entry
PARAMETER MEASURED: CLH(app)

{"columns": ["INPUT SMILES", "PARAMETER MEASURED", "RESULT"],
 "data": [
  ["CC(C)n1cc(C(=O)c2cncc(NC(=O)Cc3ccc(Cl)cc3)c2)c2cnc(N)nc21", "CLH(app)", "14 µL/min"],
  ["CC(C)(CO)n1cc(C(=O)c2cncc(NC(=O)Cc3ccc(Cl)cc3)c2)c2cnc(N)nc21", "CLH(app)", "11.2 µL/min"],
  ["CC(C)n1cc(C(=O)c2cncc(NC(=O)Cn3ccc(C(F)(F)F)n3)c2)c2cnccc21", "CLH(app)", "12 µL/min"]
]}
